// provenance: patent US10246411B2

Quick record: GI50, UACC-62.
Express the result in nM but write the number alone.

[
  {
    "molecule": "COc1ccc(S(=O)(=O)Nc2c(/C=C\\c3cc(OC)c(OC)c(OC)c3)ccc(OC)c2O)cc1 [17a]",
    "GI50 / nM": 38.9
  }
]

What does the data say about its GI50? Entry: COc1ccc(/C=C\c2cc(OC)c(OC)c(OC)c2)c(NS(=O)(=O)c2ccc(Cl)cc2)c1O [17c] 63.5

Need GI50, item COc1cc(/C=C\c2cc(OC)c(OC)c(OC)c2)cc(NS(=O)(=O)c2ccc(Cl)cc2)c1OC [13c] 435

Look up GI50: COc1ccc(S(=O)(=O)Nc2cc(/C=C\c3cc(OC)c(OC)c(OC)c3)cc(OC)c2OC)cc1 [13a] 46.1

Please look up its GI50: COc1ccc(S(=O)(=O)Nc2cc(/C=C\c3cc(OC)c(OC)c(OC)c3)ccc2OC)cc1 [12a] 49

====

compounds and their reported GI50
system: MDA-MB-435; assay: In vitro cytotoxicity (NCI protocol, SRB), MDA-MB-435 (breast panel line); conditions: Homo sapiens, MDA-MB-435, 48 h

[
  {
    "compound": "COc1ccc(/C=C\\c2cc(OC)c(OC)c(OC)c2)c(NS(=O)(=O)c2ccc(Cl)cc2)c1O [17c]",
    "assayed-target": "MDA-MB-435",
    "result": "36.7 nM"
  },
  {
    "compound": "COc1ccc(S(=O)(=O)Nc2cc(/C=C\\c3cc(OC)c(OC)c(OC)c3)cc(OC)c2OC)cc1 [13a]",
    "assayed-target": "MDA-MB-435",
    "result": "42 nM"
  },
  {
    "compound": "COc1ccc(S(=O)(=O)Nc2c(/C=C\\c3cc(OC)c(OC)c(OC)c3)ccc(OC)c2O)cc1 [17a]",
    "assayed-target": "MDA-MB-435",
    "result": "43.9 nM"
  },
  {
    "compound": "COc1ccc(S(=O)(=O)Nc2cc(/C=C\\c3cc(OC)c(OC)c(OC)c3)ccc2OC)cc1 [12a]",
    "assayed-target": "MDA-MB-435",
    "result": "168 nM"
  }
]

Quick one: GI50 for COc1cc(/C=C\c2cc(OC)c(OC)c(OC)c2)cc(NS(=O)(=O)c2ccc(Cl)cc2)c1OC [13c] ? 271 nM

====

test system: K-562
reported-property: GI50

Record excerpt, results attached:
[
  {
    "compound": "COc1ccc(/C=C\\c2cc(OC)c(OC)c(OC)c2)c(NS(=O)(=O)c2ccc(Cl)cc2)c1O [17c]",
    "GI50": "32.3 nM"
  },
  {
    "compound": "COc1ccc(S(=O)(=O)Nc2cc(/C=C\\c3cc(OC)c(OC)c(OC)c3)cc(OC)c2OC)cc1 [13a]",
    "GI50": "27.2 nM"
  }
]

For COc1ccc(S(=O)(=O)Nc2c(/C=C\c3cc(OC)c(OC)c(OC)c3)ccc(OC)c2O)cc1 [17a] , what is its reported GI50? 28.6 nM

Look up GI50 for this compound: COc1cc(/C=C\c2cc(OC)c(OC)c(OC)c2)cc(NS(=O)(=O)c2ccc(Cl)cc2)c1OC [13c] 306 nM

// lookup GI50 for COc1ccc(S(=O)(=O)Nc2cc(/C=C\c3cc(OC)c(OC)c(OC)c3)ccc2OC)cc1 [12a] 53 nM
